Target: Proteasome subunit beta (Trypanosoma cruzi)
Assay: Trypanosoma cruzi proteasome chymotrypsin-like activity (TcProtChymo) assay. Note: in the data most compounds retested in dose-response had high values.
Type: functional
Parameters: scale not given: direction of the effect not stated beside the values
Settings: 9.37 µM
Give measured Percent Effect for each item. Keep answers brief.
Give bare numbers, in %.

Sample answers from the record:
# compound, unit-annotation, observed-result
records = [
    ("O=C(Cn1ccc2ccc(Br)cc21)NCc1ccc(C(=O)O)cc1", "%", 9.88),
    ("O=C(C1=CCCC1)N1CCO[C@H]2[C@@H](OCC3CC3)CC[C@@H]21", "%", 18.3),
    ("Cc1cc(N2CCN(C(=O)c3cc(Cl)c[nH]3)CC2)nc(N)n1", "%", 15.3),
    ("CC(NC(=O)c1nc(=O)[nH][nH]1)c1ccc(OCC2CC2)c(F)c1 (stereo unspecified)", "%", 4.7),
    ("COc1c(C)cnc(CN2CCOC(Cn3nc(C)nc3C)C2)c1C (stereo unspecified)", "%", -8.11),
]

Give reported Percent Effect value for CCc1c(C(=O)NC2CCS(=O)(=O)C2)cnn1-c1ccc(F)cc1 (stereo unspecified)
7.29

###

Target: Arginase-2, mitochondrial (Homo sapiens) (UniProt P78540)
Sequence (P78540 whole entry): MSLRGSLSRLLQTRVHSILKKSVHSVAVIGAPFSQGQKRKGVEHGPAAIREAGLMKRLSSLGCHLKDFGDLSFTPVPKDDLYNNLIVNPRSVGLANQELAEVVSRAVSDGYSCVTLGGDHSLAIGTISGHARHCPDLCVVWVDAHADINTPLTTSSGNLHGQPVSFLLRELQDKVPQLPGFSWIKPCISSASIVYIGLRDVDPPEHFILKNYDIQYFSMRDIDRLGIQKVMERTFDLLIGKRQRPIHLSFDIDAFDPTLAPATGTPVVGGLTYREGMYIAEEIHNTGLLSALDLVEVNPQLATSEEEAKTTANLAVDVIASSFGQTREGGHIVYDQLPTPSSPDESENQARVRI
Test: in vitro enzyme assay to detect the production of urea directly proportional to the activity of Arginase II; note: in the data most compounds retested in dose-response had high values
Assay type: functional
Design: scale not given: direction of the effect not stated beside the values
Conditions: 33.3 µM
endpoint-name: Percent Effect (%)
Give bare numbers, in %.

# molecule, endpoint-name, observed-result
records = [
    ("Cc1cc(C(=O)NC2CCCN(c3ccccc3)C2=O)on1 (centres undefined)", "Percent Effect", -1.56),
    ("CCS(=O)(=O)N(C)c1ccc(C(=O)N2CCCC(C)C2)cc1 (centres undefined)", "Percent Effect", 0.883),
    ("COc1ccccc1CC(=O)NS(=O)(=O)c1ccc(C(N)=O)cc1", "Percent Effect", 9.25),
]

Quick one: give me Percent Effect for each item below, same order please.
1. CCOCC1CN(Cc2ccoc2)Cc2ncn(CC3CC3)c21 (centres undefined)
2. CC(C)CN1CCCC2(CCN(C(=O)c3cnccn3)C2)C1 (centres undefined)
3. O=C(c1ccc[nH]1)N1CCCC2(CCN(c3ccsc3)C2=O)C1 (centres undefined)

1: -0.833; 2: -3.23; 3: -5.81

Parameters: items (list). Returns: Percent Effect for each item.
1. CCOc1ccc(C(=O)NS(=O)(=O)c2cncc(Br)c2)cc1OC
2. O=C(c1ccccc1-n1cccn1)N1CCCN(c2cccnn2)CC1
3. Cn1cnc2c1CCN(Cc1nc(Cc3ccccc3)no1)C2
4. O=C(c1cccc(Cn2ccnc2)c1)N1CCCC(n2ccnc2)C1 (centres undefined)
5. COCCOc1ccc(NC(=O)N(C)Cc2ccsc2)cn1
6. Cc1ncnc2c1CCN(c1cc(C(F)(F)F)ncn1)CC2

1: 3.81; 2: 1.05; 3: 4.68; 4: -2.4; 5: 2.28; 6: -58.2

Parameters: items (list). Returns: Percent Effect for each item.
1. CCN(CCNC(=O)c1ccccc1OCCOC)C1CC1
2. COCCOc1ccccc1C(=O)N1CCCCC1c1nccs1 (centres undefined)
3. Cc1cnn(CCC(=O)N2CCCN(c3ncccc3C#N)CC2)c1

1: -4.52; 2: -2.81; 3: -0.215

###

Test system: Trypanosoma cruzi
Experiment: Trypanosoma cruzi phosphomannomutase and mannose-1-phosphate guanylyltransferase assay
Format: functional
Set-up: scale not given: direction of the effect not stated beside the values
Conditions: 10 µM
Give Percent Effect for every item shown.
Numbers only, in %.

# compound, Percent Effect / %
records = [
    ("O=C(C1CCOCC1)N1CCC2(CC1)CC(Oc1ccccc1)CO2 (stereo unspecified)", 0.595),
    ("CN(C)CC1CSCCCN1C(=O)Nc1ccc(C(C)(C)C)cc1 (stereo unspecified)", -9.96),
    ("COc1cccc(CN2CCCCCC2c2cccc(C)c2)c1O (stereo unspecified)", -3.25),
    ("Cc1nc(CN2CCOC(CN(C)c3cccnn3)C2)cs1 (stereo unspecified)", 4.8),
]

Would you be so kind as to report Percent Effect for each listed record?
1. Cc1cc(C(=O)N2Cc3ccccc3OC3(CCOCC3)C2)nc(N)n1
2. CCn1cnnc1C1CCN(C(=O)c2ccc(Cl)s2)CC1

0
-0.661

###

Biological target: Tyrosyl-tRNA synthetase, putative (Trypanosoma cruzi (strain CL Brener))
Sequence (whole entry): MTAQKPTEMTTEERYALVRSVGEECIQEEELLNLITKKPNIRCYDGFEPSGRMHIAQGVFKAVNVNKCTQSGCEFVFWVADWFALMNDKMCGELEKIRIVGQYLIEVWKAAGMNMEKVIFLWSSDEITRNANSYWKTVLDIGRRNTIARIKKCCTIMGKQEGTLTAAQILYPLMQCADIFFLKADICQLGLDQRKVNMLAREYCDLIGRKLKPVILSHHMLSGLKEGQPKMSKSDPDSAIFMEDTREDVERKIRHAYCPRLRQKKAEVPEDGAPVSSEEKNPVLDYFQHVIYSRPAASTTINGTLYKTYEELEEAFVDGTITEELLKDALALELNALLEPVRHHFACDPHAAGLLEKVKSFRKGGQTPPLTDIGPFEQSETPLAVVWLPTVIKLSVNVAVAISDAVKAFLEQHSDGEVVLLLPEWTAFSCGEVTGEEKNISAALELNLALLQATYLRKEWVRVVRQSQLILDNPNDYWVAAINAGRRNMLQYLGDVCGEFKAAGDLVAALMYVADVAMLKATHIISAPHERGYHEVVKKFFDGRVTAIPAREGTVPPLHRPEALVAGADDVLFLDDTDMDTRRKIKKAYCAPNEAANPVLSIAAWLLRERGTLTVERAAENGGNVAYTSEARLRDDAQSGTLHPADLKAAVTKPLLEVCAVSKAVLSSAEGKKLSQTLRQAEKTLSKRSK
Experiment: Trypanosoma cruzi tyrosyl tRNA synthetase (TcYRS) _High Tyrosine SOP; note: in the data most compounds retested in dose-response had high values
Format: functional
Set-up: scale not given: direction of the effect not stated beside the values
Conditions: 30 µM
endpoint-name: Percent Effect (%)
One number for each entry, in %.

Solved cases below.
# molecule, unit-annotation, Percent Effect
measured = [
    ("Cc1cn2c(n1)CCC(NC(=O)CCn1ccnn1)C2 (stereo not given)", "%", 2.46),
    ("CCOc1nnc(CNC2CCCN(c3ccc(C)nn3)C2)s1 (stereo not given)", "%", 5.42),
    ("CSCCCN1CC[C@@H](NC(=O)c2cnccn2)[C@H](O)C1", "%", 8.99),
    ("CC(C)c1cc(NC(=O)c2ccc(NC3CC3)nc2)[nH]n1", "%", 7.77),
    ("Cc1ccc(CNC(=O)Nc2nnc(C)s2)cn1", "%", 8.37),
    ("Cc1cc(F)ccc1CN1CCC(O)(CN2CCCCC2)C1 (stereo not given)", "%", 4.92),
]

Give Percent Effect for all molecules that follow.
1. Cn1cc(CNc2ncnc3c2CCN(Cc2ccsc2)CC3)cn1
2. CCn1cc(NC(=O)NCC(c2cccs2)N(C)C)cn1 (stereo not given)
3. FC(F)(F)C1CCCn2c(CNCc3ccsc3)nnc21 (stereo not given)
4. Cc1cc2n(n1)CC(CNCc1cnn(-c3ccccc3)c1)CN2 (stereo not given)
5. CCN(CCNC(=O)c1ccccc1OCCOC)C1CC1
6. CC(=O)c1cn(CCC(=O)N[C@H](C(=O)O)C(C)C)c2ccccc12

1. 4.92
2. 5.39
3. 9.29
4. 12.2
5. 3.12
6. 7.41

Can you give me Percent Effect for all of these, one by one?
1. COc1ccc(CN2CCOC3(CCCN(c4nnc(C)o4)C3)C2)cc1 (stereo not given)
2. CC(C)c1nn(C)c(N(C)C)c1CNCCC(=O)NC1CCCC1
3. CCc1noc(CN2CCCN(C(N)=O)CC2)n1

1. 4.17
2. 7.39
3. -1.48

###

Hi there, I'd appreciate the recorded Percent Effect for every entry that follows.
Target: Ubiquitin-activating enzyme e1, putative (Leishmania donovani (strain BPK282A1)) (UniProt E9BSI1)
Sequence (E9BSI1 as listed by the source): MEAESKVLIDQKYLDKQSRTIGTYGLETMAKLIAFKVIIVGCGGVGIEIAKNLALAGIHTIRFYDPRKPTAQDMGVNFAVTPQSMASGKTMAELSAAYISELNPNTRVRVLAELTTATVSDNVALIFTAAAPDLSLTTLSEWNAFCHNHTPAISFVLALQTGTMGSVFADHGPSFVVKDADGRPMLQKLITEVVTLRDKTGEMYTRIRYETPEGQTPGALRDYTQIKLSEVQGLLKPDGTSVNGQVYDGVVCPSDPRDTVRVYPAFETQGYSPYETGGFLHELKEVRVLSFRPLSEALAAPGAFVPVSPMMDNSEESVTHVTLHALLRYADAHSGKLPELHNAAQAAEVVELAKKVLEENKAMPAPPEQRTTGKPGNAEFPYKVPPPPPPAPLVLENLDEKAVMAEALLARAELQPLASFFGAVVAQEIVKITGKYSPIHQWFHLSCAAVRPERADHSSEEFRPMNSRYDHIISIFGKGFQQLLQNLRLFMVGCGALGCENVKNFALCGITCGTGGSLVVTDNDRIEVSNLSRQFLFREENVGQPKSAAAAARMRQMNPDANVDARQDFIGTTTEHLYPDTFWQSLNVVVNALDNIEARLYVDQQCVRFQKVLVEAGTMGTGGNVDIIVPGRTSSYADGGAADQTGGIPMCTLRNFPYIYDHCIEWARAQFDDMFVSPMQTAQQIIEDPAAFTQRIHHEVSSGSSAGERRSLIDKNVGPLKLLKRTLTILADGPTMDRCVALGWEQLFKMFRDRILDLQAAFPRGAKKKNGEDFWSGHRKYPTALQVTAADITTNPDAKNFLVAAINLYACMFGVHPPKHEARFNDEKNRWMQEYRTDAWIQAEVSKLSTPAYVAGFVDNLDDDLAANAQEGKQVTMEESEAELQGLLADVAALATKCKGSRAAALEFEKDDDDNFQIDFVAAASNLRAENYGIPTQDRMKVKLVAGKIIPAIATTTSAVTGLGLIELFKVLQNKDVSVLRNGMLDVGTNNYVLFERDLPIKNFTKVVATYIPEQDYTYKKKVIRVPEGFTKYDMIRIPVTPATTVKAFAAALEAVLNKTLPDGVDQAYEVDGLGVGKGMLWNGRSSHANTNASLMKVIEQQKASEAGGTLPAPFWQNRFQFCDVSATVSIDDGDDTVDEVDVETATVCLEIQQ
Experiment: Leishmania donovani Ubiquitin Activating Enzyme (LdE1)
Type: functional
Set-up: scale not given: direction of the effect not stated beside the values
Details: 30 µM
Results with a measured potency or affinity are listed apart.
Answers are plain numbers, in %.

# molecule, Percent Effect [%]
records = [
    ("CC(C)(C)N1CCCN(C(=O)c2csc(S(N)(=O)=O)c2)CC1", 0),
]

Lab note: each molecule below needs its Percent Effect filled in.
1. COCCNC(=O)c1sc(Nc2ccc(Cl)cn2)nc1C
2. Cc1nc(C)n(C2CCCN(C(=O)c3ccccc3C)C2)n1 (stereo not drawn)
3. O=C(NCCOCC(F)(F)F)c1ccc(-c2ccco2)[nH]c1=O
4. CC(C)c1nnc2n1CC(CNCc1ccncc1)CC2 (stereo not drawn)
5. COCCN(C)C(=O)Cn1cccc(OC)c1=O
6. O=C(C1CCOCC1)N1CCC2(CC1)CC(Oc1ccccc1)CO2 (stereo not drawn)
7. Cn1cc(CNc2ncnc3c2CCN(Cc2ccsc2)CC3)cn1

1. 20
2. 18.2
3. 8.11
4. 4.17
5. 5.48
6. 8.22
7. 13.3

Each molecule below has a reported value. Please supply its Percent Effect.
1. Cc1occc1C(=O)Nc1ccnc(OC2CCOC2)c1 (stereo not drawn)
2. Cc1cccc(CCC(=O)N2CCCC(c3cc(C(N)=O)[nH]n3)C2)c1 (stereo not drawn)
3. COc1cccc(CNc2nc(O)cc(C3CC(=O)N(C)C3)n2)c1 (stereo not drawn)
4. CC(=O)N1[C@H](Cn2cncn2)C[C@@H]2CN(c3ccc(C)nn3)CC[C@@H]21
5. CN(C)S(=O)(=O)c1ccc(OCCNCCn2cccn2)cc1
6. CC(C1CC1)N(C(=O)NCCCn1nc2ccccn2c1=O)C1CC1 (stereo not drawn)
7. Cc1cc(CN2CCN(C(=O)NCc3ccc(C)s3)CC2)no1
8. O=C(Cc1ccc2c(c1)CCO2)N1CCCCC1Cn1cccn1 (stereo not drawn)

6.94
-18.9
12.2
2.6
1.27
16.4
17.7
10.5

Hey, quick one: what's Percent Effect for each of these?
1. Cc1nc(C2CCCN(C(=O)c3cccc4c3OCO4)C2)no1 (stereo not drawn)
2. O=S(=O)(NCC1CCN(c2ccccn2)CC1)c1ccccc1F
3. CS(=O)(=O)N1CC[C@H]2O[C@H](C(=O)NCCc3ccncc3)CC[C@H]21
4. Cc1nccn1C1CCCN(C(=O)c2ccc(N3CCCC3)nn2)C1 (stereo not drawn)

1: 11.4; 2: 23.4; 3: 0; 4: 10.5

// for each molecule in input: emit Percent Effect
1. Cc1n[nH]c(C2CN(C(=O)CCc3ccsc3)CCO2)n1 (stereo not drawn)
2. CCN(CC)C(=O)Cn1ccc2cc(NC(=O)C3CC3)ccc21
3. Cn1c(NCC(O)c2ccc(F)cc2F)c(C#N)c(=O)n(C)c1=O (stereo not drawn)
4. Cc1nccn1CCC1CCCCN1Cc1ccncc1 (stereo not drawn)
5. COCc1nn(C(C)C)c2c1CCN(Cc1ccc(C)s1)C2
6. COc1ccc(CN(C)C(=O)CCC(=O)c2cccs2)c(OC)c1OC
7. CC(=O)Nc1ccc(CNC2CC(=O)N(Cc3cccc(F)c3)C2)cc1 (stereo not drawn)

1: -2.74; 2: 15.8; 3: 17.7; 4: 8; 5: 2.74; 6: -2.74; 7: 0

Hi! Can you tell me Percent Effect for each of these molecules?
1. Cn1ccc(C(=O)N2CCC(Cc3cccc4cccnc34)C2)n1 (stereo not drawn)
2. N#CCSCCCN1CCN(C(=O)c2ccc(Cl)cc2)CC1
3. CCc1nc2n(n1)CC(NCc1ccnc(-c3ccccc3)n1)CC2 (stereo not drawn)
4. Cc1noc(C)c1CN1CC[C@H]2OCC[C@@H](C(=O)NCC3CC3)[C@@H]2C1
5. CC(C)c1nn(CC(=O)N2CCCCC2)c(=O)c2c1cnn2C(C)(C)C
6. Cc1cnn(CC(C)NCc2csc(-c3ccsc3)n2)c1 (stereo not drawn)
7. c1ccc(-c2noc(CNC3CCc4ncnn4C3)n2)nc1 (stereo not drawn)
8. Nc1cc2c(nn1)CCN(C(=O)CC1CCCC1)C2

9.46
-8.22
0
2.67
11
-3.8
-5.41
10.1

Hi there! I need Percent Effect for each item below, if you can.
1. C=C(C)C(=O)N1CCC(C(=O)c2cc(C)cnc2N)CC1
2. CCn1c(C)nnc1CN(C)C1CCN(Cc2cnc(C)cn2)C1 (stereo not drawn)
3. CCCOCCN1CCC2(CC1)CC(c1ccccc1)C(=O)N2C (stereo not drawn)
4. O=C(c1ccc[nH]1)N1C[C@H]2CC[C@@H]1CN(C1Cc3ccccc3C1)C2

1. 5.33
2. 10.8
3. 5.33
4. 8.11

// for each molecule in input: emit Percent Effect
1. CCC(CC)C(CNC(=O)Nc1ccc(C)cc1)N1CCOCC1 (stereo not drawn)
2. Cc1nnc2n1CCN(Cc1csc(Cc3ccccc3)n1)C2

22.8
5.41

Provide reported Percent Effect for each item, in the same order as listed.
1. Cc1cnn(CCNCC(O)COc2ccc(C#N)cc2)c1 (stereo not drawn)
2. CC(C)(C)c1n[nH]c(C2CN(C(=O)c3cc(C4CC4)on3)CCO2)n1 (stereo not drawn)
3. COCCOc1ccccc1C(=O)N1CCCCC1c1nccs1 (stereo not drawn)
4. CCc1ncncc1C(=O)NCCN1CCC(C)CC1
5. CC(=O)N(Cc1ncc(C)o1)C1CCN(Cc2ccncc2Cl)C1 (stereo not drawn)

1: 15.2; 2: 7.89; 3: 5.41; 4: -4.17; 5: 15.6

Here are 2 molecules. What values of Percent Effect were reported for them?
1. CC1CN(C)CCN1C(=O)c1ccn(-c2cccc(Cl)c2)n1 (stereo not drawn)
2. c1cnc(NCc2noc3c2CN(C2CCOCC2)CC3)nc1

5.2
18.7
